- Test description: Solid stability test of the crystal forms (influence factors and acceleration tests; appearance, XRPD, HPLC content and impurities)
- Assay type: physicochemical
- Measurement context: High humidity (room temperature/relative humidity of 92.5%, open), 10 days
Classification field: true (1) = Total Impurities (%) at or over 0.9%; false (0) = Total Impurities (%) under 0.9%.

Input line: Assess whether reported Total Impurities (%) for C=CC(=O)N[C@H]1COC[C@H]1Nc1ncc(/C=C(\F)c2c(Cl)c(OC)cc(OC)c2Cl)cn1 [Crystal Form C] sits at 0.9% or higher.
Output line: true (1)

Input line: Is the recorded value of Total Impurities (%) equal to or greater than 0.9% for this compound? C=CC(=O)N[C@H]1COC[C@H]1Nc1ncc(/C=C(\F)c2c(Cl)c(OC)cc(OC)c2Cl)cn1.CS(=O)(=O)O [Crystal Form F]
Output line: false (0)

Input line: Textbook exercise: given the entry C=CC(=O)N[C@H]1COC[C@H]1Nc1ncc(/C=C(\F)c2c(Cl)c(OC)cc(OC)c2Cl)cn1.CS(=O)(=O)O [Crystal Form E] , state whether its Total Impurities (%) is greater than or equal to 0.9%.
Output line: false (0)

Input line: Has C=CC(=O)N[C@H]1COC[C@H]1Nc1ncc(/C=C(\F)c2c(Cl)c(OC)cc(OC)c2Cl)cn1 [Crystal Form A] a recorded Total Impurities (%) greater than or equal to 0.9%?
Output line: true (1)

Input line: Is reported Total Impurities (%) greater than or equal to 0.9% here: C=CC(=O)N[C@H]1COC[C@H]1Nc1ncc(/C=C(\F)c2c(Cl)c(OC)cc(OC)c2Cl)cn1 [Crystal Form B]
Output line: false (0)

###

- Test description: Solid stability test of the crystal forms (influence factors and acceleration tests; appearance, XRPD, HPLC content and impurities)
- Assay type: physicochemical
- Measurement context: Light radiation (total illumination: 1.2 × 10^6 Lux·hr), 10 days
- Source text: A sample of the crystal form A was placed on the bottom of a glass sample bottle, and spread to a thin layer. […] Samples were taken and analyzed at various time points, and the test results were compared with the initial test results of 0 day, the inspection items included appearance, content and impurities, and the test results are shown in Table 9. […]
Record form. Attribute: Content (%). Fill in for each entry.
Numbers only here, please. The scale is %.

Input line: Tell me the measured Content (%) of C=CC(=O)N[C@H]1COC[C@H]1Nc1ncc(/C=C(\F)c2c(Cl)c(OC)cc(OC)c2Cl)cn1 [Crystal Form C] , please.
Output line: 98.35

Input line: I would be grateful if you could share the reported Content (%) for C=CC(=O)N[C@H]1COC[C@H]1Nc1ncc(/C=C(\F)c2c(Cl)c(OC)cc(OC)c2Cl)cn1.CS(=O)(=O)O [Crystal Form F] .
Output line: 99.30

Input line: I would be grateful if you could share the reported Content (%) for C=CC(=O)N[C@H]1COC[C@H]1Nc1ncc(/C=C(\F)c2c(Cl)c(OC)cc(OC)c2Cl)cn1 [Crystal Form D] .
Output line: 99.41

Input line: // lookup Content (%) for C=CC(=O)N[C@H]1COC[C@H]1Nc1ncc(/C=C(\F)c2c(Cl)c(OC)cc(OC)c2Cl)cn1 [Crystal Form A]
Output line: 99.13

###

- Test description: Solubility test in biological media (FaSSIF, FeSSIF, SGF) and water, 37° C.
- Assay type: physicochemical
- Measurement context: pH 5, thermodynamic from solid; FeSSIF, 37° C., 24 hours; salt forms converted to salt concentrations; read-out: Solubility (mg/mL) 24 hours
Quantity measured: solubility at 24 h (mg/mL)
Output spec: scalar in mg/mL, unitless text.

Input line: Consider the molecule C=CC(=O)N[C@H]1COC[C@H]1Nc1ncc(/C=C(\F)c2c(Cl)c(OC)cc(OC)c2Cl)cn1.CS(=O)(=O)O [Crystal Form E] and give its measured solubility at 24 h.
Output line: 0.358

Input line: Requested read-out: solubility at 24 h. Entry: "C=CC(=O)N[C@H]1COC[C@H]1Nc1ncc(/C=C(\F)c2c(Cl)c(OC)cc(OC)c2Cl)cn1.O=S(=O)(O)O"
Output line: 0.668

Input line: Value lookup for solubility at 24 h; key = C=CC(=O)N[C@H]1COC[C@H]1Nc1ncc(/C=C(\F)c2c(Cl)c(OC)cc(OC)c2Cl)cn1 [Crystal Form B]
Output line: 0.284
